tested on: UACC-62; assay: NCI tumour cell line growth inhibition, 48 h
Activity calls are given as the source filed them. Cut-off read from the data, not from the text of the source: active = GI50 up to about 1.1 µM and inactive = higher.
Hi there, use one of these labels in your reply, thanks! active, inactive

// below: answered molecules
[
  {
    "Molecule": "COc1ccc(-c2oc3cc(O)c(OC)c(O)c3c(=O)c2OC2OC(CO)C(O)C(O)C2O)cc1 (stereo unspecified)",
    "Qualitative Label": "inactive"
  },
  {
    "Molecule": "CCN(CC)CCC(=O)c1ccc(Oc2ccc(Cl)cc2)cc1",
    "Qualitative Label": "inactive"
  },
  {
    "Molecule": "CC1(C)CC2=C(Sc3ccccc3N2)C(=O)C1C(=O)C(=O)Nc1cccc([N+](=O)[O-])c1 (stereo unspecified)",
    "Qualitative Label": "inactive"
  },
  {
    "Molecule": "CCOc1cc(NC(C)=O)ccc1C(=O)NN1C(=O)/C(=C/c2cc(OC)c(OC)c(OC)c2)N=C1c1ccccc1",
    "Qualitative Label": "inactive"
  },
  {
    "Molecule": "O=C1Nc2ccc(Br)cc2/C1=N/NC(=S)Nc1ccc(F)cc1",
    "Qualitative Label": "inactive"
  }
]

What classification did COC(=O)C[C@H]1[C@]2(C)C3=C(C)[C@H](c4ccoc4)CC3O[C@@H]2[C@@H]2OC(=O)[C@]3(C)CCC(=O)[C@@]1(C)[C@@H]23 (stereo partly specified) end up with in this test?
inactive

CC(=O)NCCC1CN(C(=O)/C=C\C#C[Si](C)(C)C)c2ccccc21 (stereo unspecified) ?
inactive

Same question, CCc1cc2c(O)c(c1)Cc1cc(CC)cc(c1O)Cc1cc(CC)cc(c1O)Cc1cc(CC)cc(c1O)Cc1cc(CC)cc(c1O)Cc1cc(CC)cc(c1O)Cc1cc(CC)cc(c1O)C2 this time
inactive
